# credit: the supplement of paper PMC6757056

Record form. Attribute: normalized RNA/DNA level with ligand (log10). Fill in for each entry.
B1: library; a variant is named by its letters at N, in order (parent)
chain: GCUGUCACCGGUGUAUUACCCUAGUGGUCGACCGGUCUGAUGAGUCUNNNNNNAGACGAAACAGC

- Variants of: B1
- assay.remarks: normalized RNA/DNA level with ligand (relative to sTRSVctl = 100) (log10 (% of sTRSVctl)); ligand: hypoxanthine (xanthine aptamer); higher = less ribozyme self-cleavage, higher mRNA level
- test.conditions: ligand concentration (+) RNA-Seq: 5 mM, HEK293T, reporter: mCherry (pCS4076), ligand present: yes
Numbers only.

input.sequence: GCUGUCACCGGUGUAUUACCCUAGUGGUCGACCGGUCUGAUGAGUCUGGUUUAAGACGAAACAGC [GGUUUA]
obs.value: 1.96

Hey, can you go through the list below and give me normalized RNA/DNA level with ligand (log10) for every item?
1. GCUGUCACCGGUGUAUUACCCUAGUGGUCGACCGGUCUGAUGAGUCUUCAGUCAGACGAAACAGC [UCAGUC]
2. GCUGUCACCGGUGUAUUACCCUAGUGGUCGACCGGUCUGAUGAGUCUCUAGAAAGACGAAACAGC [CUAGAA]
3. GCUGUCACCGGUGUAUUACCCUAGUGGUCGACCGGUCUGAUGAGUCUGCCAAUAGACGAAACAGC [GCCAAU]
4. GCUGUCACCGGUGUAUUACCCUAGUGGUCGACCGGUCUGAUGAGUCUGAGUGAAGACGAAACAGC [GAGUGA]
5. GCUGUCACCGGUGUAUUACCCUAGUGGUCGACCGGUCUGAUGAGUCUCGGUCGAGACGAAACAGC [CGGUCG]

A)
[1.96, 1.92, 1.95, 1.87, 2]

Hey, can you go through the list below and give me normalized RNA/DNA level with ligand (log10) for every item?
1. GCUGUCACCGGUGUAUUACCCUAGUGGUCGACCGGUCUGAUGAGUCUGUAGAGAGACGAAACAGC [GUAGAG]
2. GCUGUCACCGGUGUAUUACCCUAGUGGUCGACCGGUCUGAUGAGUCUGGCUCCAGACGAAACAGC [GGCUCC]
3. GCUGUCACCGGUGUAUUACCCUAGUGGUCGACCGGUCUGAUGAGUCUGGAGUGAGACGAAACAGC [GGAGUG]
4. GCUGUCACCGGUGUAUUACCCUAGUGGUCGACCGGUCUGAUGAGUCUAGCAAGAGACGAAACAGC [AGCAAG]
5. GCUGUCACCGGUGUAUUACCCUAGUGGUCGACCGGUCUGAUGAGUCUGGAGAUAGACGAAACAGC [GGAGAU]
6. GCUGUCACCGGUGUAUUACCCUAGUGGUCGACCGGUCUGAUGAGUCUGACUUUAGACGAAACAGC [GACUUU]
7. GCUGUCACCGGUGUAUUACCCUAGUGGUCGACCGGUCUGAUGAGUCUCGAACUAGACGAAACAGC [CGAACU]

A)
[1.83, 1.99, 1.85, 1.81, 1.93, 1.92, 1.93]

Hey, can you go through the list below and give me normalized RNA/DNA level with ligand (log10) for every item?
1. GCUGUCACCGGUGUAUUACCCUAGUGGUCGACCGGUCUGAUGAGUCUGGCCCUAGACGAAACAGC [GGCCCU]
2. GCUGUCACCGGUGUAUUACCCUAGUGGUCGACCGGUCUGAUGAGUCUUCGUGCAGACGAAACAGC [UCGUGC]
3. GCUGUCACCGGUGUAUUACCCUAGUGGUCGACCGGUCUGAUGAGUCUUGCCCUAGACGAAACAGC [UGCCCU]
4. GCUGUCACCGGUGUAUUACCCUAGUGGUCGACCGGUCUGAUGAGUCUGAAGAUAGACGAAACAGC [GAAGAU]

A)
1: 2.04; 2: 1.95; 3: 2; 4: 1.94

Hey, can you go through the list below and give me normalized RNA/DNA level with ligand (log10) for every item?
1. GCUGUCACCGGUGUAUUACCCUAGUGGUCGACCGGUCUGAUGAGUCUUGUAUCAGACGAAACAGC [UGUAUC]
2. GCUGUCACCGGUGUAUUACCCUAGUGGUCGACCGGUCUGAUGAGUCUAGCACAAGACGAAACAGC [AGCACA]
3. GCUGUCACCGGUGUAUUACCCUAGUGGUCGACCGGUCUGAUGAGUCUGAUCAUAGACGAAACAGC [GAUCAU]

A)
1: 1.94; 2: 1.92; 3: 1.91
